Some molecules, each annotated with its measured HLM QH.
# protocol: Metabolic (microsomal) stability assay, human liver microsomes (HLM)
# Type: in vitro ADME
# condition context: predicted clearance as percent of liver blood flow, 1 μM

| structure as smiles | HLM QH [%] |
| --- | --- |
| CO[C@@H]1C[C@@H]([C@H](C)Oc2cc(-n3ccnc3)nc(-c3noc4c3CCC[C@@]43CCCc4sc(N)c(C#N)c43)n2)N(C)C1 | 46 |
| C[C@H](Oc1nc(-c2noc3c2CCC[C@@]32CCCc3sc(N)c(C#N)c32)nc(N2CCNC3(CC3)C2)c1F)[C@@H]1C[C@@H](F)CN1C | 70 |
| C[C@H](Oc1cc(-c2cnn(C)n2)nc(-c2noc3c2CCC[C@@]32CCCc3sc(N)c(C#N)c32)n1)[C@@H]1CCCN1C | 35 |

---

# System: LOVO cells
# protocol: LOVO CTG proliferation assay (120 h) (CRC, G13D)
# Assay type: cell-based
# condition context: Homo sapiens, CTG 120 h
pIC50: −log10 of the molar value.

| structure as smiles | pIC50 |
| --- | --- |
| C[C@H](Oc1cc(-c2ccn(C)n2)nc(-c2noc3c2CCC[C@@]32CCCc3sc(N)c(C#N)c32)n1)[C@@H]1CCCN1C | 6.64 |
| C[C@H](Oc1cc([C@H]2CCNC2)nc(-c2noc3c2CCC[C@@]32CCCc3sc(N)c(C#N)c32)n1)[C@@H]1CCCN1C | 5.96 |
| Cc1nc(-c2cc(O[C@@H](C)[C@@H]3CCCN3C)nc(-c3onc4c3CCC[C@@]43CCCc4sc(N)c(C#N)c43)n2)cs1 | 7.00 |
| CO[C@H]1CCN(C)[C@@H]1[C@H](C)Oc1cc(N2CCNC3(CC3)C2)nc(-c2noc3c2CCC[C@@]32CCCc3sc(N)c(C#N)c32)n1 | 6.49 |
| CO[C@H]1CCN(C)[C@@H]1[C@H](C)Oc1cc(-n2ccc(CC(=O)NC(C)C)n2)nc(-c2noc3c2CCC[C@@]32CCCc3sc(N)c(C#N)c32)n1 | 8.05 |
| C[C@H](Oc1cc(-c2cnn(C)c2)nc(-c2noc3c2CCC[C@@]32CCCc3sc(N)c(C#N)c32)n1)[C@@H]1CCCN1C | 6.50 |

---

Recorded IC50 by entry
# tgt: KRAS (G12D)::SOS1 (Homo sapiens (Human), UniProt P01116, G12D)
# Sequence (P01116 other isoform, or with tags, fused parts or gaps G12D): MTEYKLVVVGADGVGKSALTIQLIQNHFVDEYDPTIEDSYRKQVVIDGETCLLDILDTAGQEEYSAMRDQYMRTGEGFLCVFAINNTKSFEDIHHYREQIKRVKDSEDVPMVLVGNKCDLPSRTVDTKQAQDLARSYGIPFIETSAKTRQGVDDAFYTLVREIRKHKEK
# protocol: KRAS::SOS1 AlphaScreen binding assay, KRAS G12D

| structure as smiles | display unit | IC50 |
| --- | --- | --- |
| C[C@H](Oc1cc(N2CCC[C@@H](O)C2)nc(-c2noc3c2CCC[C@@]32CCCc3sc(N)c(C#N)c32)n1)[C@@H]1CCCN1C | nM | 2 |
| C[C@H](Oc1cc(N2CCN(C)C3(CC3)C2)nc(-c2noc3c2CCC[C@@]32CCCc3sc(N)c(C#N)c32)n1)[C@@H]1CCCN1C | nM | 1 |
| C[C@H](Oc1cc(-n2ccc(C(=O)NC3COC3)n2)nc(-c2noc3c2CCC[C@@]32CCCc3sc(N)c(C#N)c32)n1)[C@@H]1CCCN1C | nM | 2 |
| C[C@H](Oc1cc(N2C[C@H]3CN(C)C[C@H]3C2)nc(-c2noc3c2CCC[C@@]32CCCc3sc(N)c(C#N)c32)n1)[C@@H]1CCCN1C | nM | 2 |
| C[C@H](Oc1cc(N2CCN(C)C3(COC3)C2)nc(-c2noc3c2CCC[C@@]32CCCc3sc(N)c(C#N)c32)n1)[C@@H]1CCCN1C | nM | 1 |
| C[C@H](Oc1cc(N2CCC(N(C)C)CC2)nc(-c2noc3c2CCC[C@@]32CCCc3sc(N)c(C#N)c32)n1)[C@@H]1CCCN1C | nM | 1 |

These data points were gathered from patent US20240174690A1.
